# experimentNotes: Induction of apoptosis in Con A-stimulated human PBMC assessed as viable cells at 90 uM after 72 hrs by annexin V/PI based flow cytometric analysis (reference value: 84.6 %)
# Assay type: cell-based
# reportedConditions: read-out: Activity
observable: viability at 72 h, 90 µM (%)
Report as a plain number; the unit % is understood.

Incoming: Dear colleague, I am looking for the recorded viability at 72 h, 90 µM of the following compound: `OC[C@@H]1[C@@H](O)[C@H](O)[C@@H](O)CN1Cc1c(F)c(F)c(F)c(F)c1F`
Outgoing: 83
